Reported Cell Viability (100%), 20 μM, 48 h, hepG2 values for the following compounds.
# System: hepG2 cells
# assay.notes: CCK8 cell viability assay, hepG2
# Type: cell-based, human
# measurement.parameters: 20 μM, hepG2, CCK8, control taken as 100%
Use % as the unit, but write only the number.

INSERT INTO measurements (compound, measured_on, numeric_readout) VALUES
  ('COc1c2n(cc(C(=O)Nc3cccc(-c4cn(Cc5ccccc5)nn4)c3)c1=O)CC1OCCC(C)N1C2=O (stereo not shown)', 'hepG2 cells', 57.81),
  ('COc1c2n(cc(C(=O)Nc3cccc(-c4cn(-c5ccc(C)cc5)nn4)c3)c1=O)CC1OCCC(C)N1C2=O (stereo not shown)', 'hepG2 cells', 69.40),
  ('COc1ccc(-n2cc(-c3cccc(NC(=O)c4cn5c(c(OC)c4=O)C(=O)N4C(C)CCOC4C5)c3)nn2)cc1OC (stereo not shown)', 'hepG2 cells', 77.13),
  ('COc1cccc(Cn2cc(-c3cccc(NC(=O)c4cn5c(c(OC)c4=O)C(=O)N4C(C)CCOC4C5)c3)nn2)c1 (stereo not shown)', 'hepG2 cells', 65.65),
  ('CCc1ccccc1-n1cc(-c2cccc(NC(=O)c3cn4c(c(OC)c3=O)C(=O)N3C(C)CCOC3C4)c2)nn1 (stereo not shown)', 'hepG2 cells', 50.62),
  ('COc1c2n(cc(C(=O)Nc3cccc(-c4cn(-c5ccccc5)nn4)c3)c1=O)CC1OCCC(C)N1C2=O (stereo not shown)', 'hepG2 cells', 80.21);

Could you now look at the following compound, please?
Input line: What value of Cell Viability (100%), 20 μM, 48 h, hepG2 has been reported for the following compound? COc1c2n(cc(C(=O)Nc3cccc(-c4cn(-c5ccccc5C(F)(F)F)nn4)c3)c1=O)CC1OCCC(C)N1C2=O (stereo not shown)
Output line: 54.14

Data provenance: paper PMC11052077
